Where do these numbers come from? They come from the nanobody polyreactivity screen of Harvey et al. (2022).

- method.notes: yeast display, Sf9 membrane polyspecificity reagent, FACS + sequencing; frameworks hold sequencing errors
value.type: polyreactivity (PSR sort gate)

{"macromolecule.sequence": "QVQLVESGGGLVQAGGILRLSCAASGSIFNRNAMGWYRQAPGKEREFVADISWSGGSTYYADSVKGRFTISRDNAKNTVYLQMNSLKPEDTAVYYCAAKSTGRWWRAGYVYWGQGTQVTVSS", "assay.value": "high polyreactivity"}
{"macromolecule.sequence": "QVQLVESGGGLVQAGGSLRLSCAASGYIFKIKAMGWYRQAPGKERELVATITWSTGTTYYADSVKGRFTISRDNAKNTVYLQMNSLKPEDTAVYYCNATAIIRIGVLPGDYWGQGTQVTVSS", "assay.value": "low polyreactivity"}
{"macromolecule.sequence": "QVQLVESGGGLVQAGGSLRLSCAASGGIFDYYAMGWYRQAPGKERELVAAISSSGGSTYYADSVKGRFTISRDNAKNTVYLQMNSLKPEDTAVYYCNADRRRRFGYWGQGTQVTVSS", "assay.value": "high polyreactivity"}
{"macromolecule.sequence": "QVQLVESGGGLVQAGGSLRLSCAASGITFVLYAMGWYRQAPGKERELVAAISSGGRTKYADSVKGRFTISRDNAKNTVYLQMNSLKPEDTAVYYCATKTRYLYPAYYYWGQGTQVTVSS", "assay.value": "high polyreactivity"}
{"macromolecule.sequence": "QVQLVESGGGLVQAGGSLRLSCAASGSIFGLNAMGWSRPAPGKERELVAAISGGSTNYADSVKGRFTISRDNAKNTVYLQMNSLKPEDTAVYYCAARARRRYYYWGQGTQVTVSS", "assay.value": "high polyreactivity"}
{"macromolecule.sequence": "QVHIVESGEVIVQAGGSLRLSCDASGFTIIQYAMGWYRQAPGKERELVAAISVSGGSTYYADSVKGRFTISRDNAKNTVYLQMNSLKTEDTAVYYCATYGFHSIGSIFEYEYWGQGTQVTVSS", "assay.value": "high polyreactivity"}
{"macromolecule.sequence": "QVQLVESGRGLVQAGGSLRLSCAASGSIFRYNAMGWYRQAPGKERELVAAITRRGTSTYYADSVKGRFTISRDNAKNTVYLQKNSLKPEDTAVYYCAARYLYGVPVGGHGYWGQGTQVSVSS", "assay.value": "high polyreactivity"}
{"macromolecule.sequence": "QVQLVESGGGLVQAGGSLRLSCAASGIIFTDYAMGWYRQAPGKERELVAAISSGGGSTYYADSVKGRFTNSRDYAKNTVYLQMNSLKPEDTAVYYCAAQTSGSYGFDHWGQGTQVTVSS", "assay.value": "high polyreactivity"}
{"macromolecule.sequence": "QVQLVESGGGLVQAGGSRRVSCAASGITFPNYAMGWYRQAPGKERELVAAITGSGGSTYYADSVKGRFTISRDNAKNTVYVQMNSLKPEDTAVYYCNAVYYRYIRGFYYWGPGTQVTVSS", "assay.value": "high polyreactivity"}
{"macromolecule.sequence": "QVQLVEAGGGLVQAGGSLRLSCAASGSIFFIYAMGWYRQAPGKERELVAAITSGDRTYSADSVKGRFTISRDNAKNTVYLQMNSLKPEDTAVYYCNADYYISYWGQGTQVTVSS", "assay.value": "low polyreactivity"}
{"macromolecule.sequence": "QVQLVESGGGLVQAGGSLRLSCAASGRNFILNAMGWYRQAPGKERELVAAISWSGGSTYYADSVKGRFTISRDNAKNTVYLQMNSLKPEDTAVYYCAAETYAYLFHTYDYWGQGTQVTVSS", "assay.value": "low polyreactivity"}
